# ASSAYED SYSTEM: T1, Human CD3eg linker (human)
# T1 construct: Single chain: epsilon and gamma subunits of human CD3 joined by a 29-mer linker, Flag-tag at the C-terminus; also called recombinant human CD3
# T1 chain: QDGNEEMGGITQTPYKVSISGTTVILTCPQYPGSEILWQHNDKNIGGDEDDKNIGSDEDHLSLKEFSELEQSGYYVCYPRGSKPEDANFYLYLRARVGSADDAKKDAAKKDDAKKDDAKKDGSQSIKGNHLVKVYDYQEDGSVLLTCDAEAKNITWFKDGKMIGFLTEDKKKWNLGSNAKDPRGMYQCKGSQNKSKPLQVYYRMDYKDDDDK
# PROTOCOL: Biacore SPR, vs template H183/L072
MEASURED ATTRIBUTE: fold change of affinity (fold)
Write the value in fold as a bare number.

Consider the reported fold change of affinity for these binders:
BINDER	MEASURED ATTRIBUTE	OBSERVED RESULT
H183/L072 VH G52cF (antibody, name in Kabat numbering, V domains shown) VH: QVQLVESGGGLVQPGRSLRLSCAASGFTFSNAWMHWVRQAPGKGLEWVAQIKDKFNAYAAYYAPSVKGRFTISRDDSKNSIYLQMNSLKTEDTAVYYCHYVHYASASTVLPAFGVDAWGQGTTVTVSS VL: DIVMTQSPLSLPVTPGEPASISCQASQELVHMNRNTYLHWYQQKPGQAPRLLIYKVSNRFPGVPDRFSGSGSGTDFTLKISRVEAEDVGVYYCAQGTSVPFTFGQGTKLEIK	fold change of affinity	2
H183/L072 VH N31F (antibody, name in Kabat numbering, V domains shown) VH: QVQLVESGGGLVQPGRSLRLSCAASGFTFSFAWMHWVRQAPGKGLEWVAQIKDKGNAYAAYYAPSVKGRFTISRDDSKNSIYLQMNSLKTEDTAVYYCHYVHYASASTVLPAFGVDAWGQGTTVTVSS VL: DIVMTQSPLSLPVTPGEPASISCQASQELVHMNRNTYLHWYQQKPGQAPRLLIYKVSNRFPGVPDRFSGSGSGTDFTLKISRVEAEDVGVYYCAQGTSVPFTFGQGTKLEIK	fold change of affinity	0.5
H183/L072 VH S30Y (antibody, name in Kabat numbering, V domains shown) VH: QVQLVESGGGLVQPGRSLRLSCAASGFTFYNAWMHWVRQAPGKGLEWVAQIKDKGNAYAAYYAPSVKGRFTISRDDSKNSIYLQMNSLKTEDTAVYYCHYVHYASASTVLPAFGVDAWGQGTTVTVSS VL: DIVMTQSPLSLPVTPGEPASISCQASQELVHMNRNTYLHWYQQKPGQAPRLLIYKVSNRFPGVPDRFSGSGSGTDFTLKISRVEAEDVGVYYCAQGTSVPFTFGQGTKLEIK	fold change of affinity	1.2

Prompt: Recorded fold change of affinity for H183/L072 VH K52R (antibody, name in Kabat numbering, V domains shown) VH: QVQLVESGGGLVQPGRSLRLSCAASGFTFSNAWMHWVRQAPGKGLEWVAQIRDKGNAYAAYYAPSVKGRFTISRDDSKNSIYLQMNSLKTEDTAVYYCHYVHYASASTVLPAFGVDAWGQGTTVTVSS VL: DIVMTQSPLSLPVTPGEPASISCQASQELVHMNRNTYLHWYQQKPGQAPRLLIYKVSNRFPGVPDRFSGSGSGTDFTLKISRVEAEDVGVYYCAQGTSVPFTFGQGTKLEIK , please?
Completion: 0.8

Prompt: Recorded fold change of affinity for H183/L072 VH D52aV (antibody, name in Kabat numbering, V domains shown) VH: QVQLVESGGGLVQPGRSLRLSCAASGFTFSNAWMHWVRQAPGKGLEWVAQIKVKGNAYAAYYAPSVKGRFTISRDDSKNSIYLQMNSLKTEDTAVYYCHYVHYASASTVLPAFGVDAWGQGTTVTVSS VL: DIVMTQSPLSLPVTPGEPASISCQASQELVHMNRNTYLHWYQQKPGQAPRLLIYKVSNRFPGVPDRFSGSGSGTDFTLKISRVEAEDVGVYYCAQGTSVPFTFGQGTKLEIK , please?
Completion: 0

Prompt: Recorded fold change of affinity for H183/L072 VH F29T (antibody, name in Kabat numbering, V domains shown) VH: QVQLVESGGGLVQPGRSLRLSCAASGFTTSNAWMHWVRQAPGKGLEWVAQIKDKGNAYAAYYAPSVKGRFTISRDDSKNSIYLQMNSLKTEDTAVYYCHYVHYASASTVLPAFGVDAWGQGTTVTVSS VL: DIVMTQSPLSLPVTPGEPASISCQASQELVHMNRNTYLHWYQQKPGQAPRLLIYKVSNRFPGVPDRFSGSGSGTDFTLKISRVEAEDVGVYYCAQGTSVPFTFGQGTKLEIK , please?
Completion: 0.2

Prompt: Recorded fold change of affinity for H183/L072 VH S30E (antibody, name in Kabat numbering, V domains shown) VH: QVQLVESGGGLVQPGRSLRLSCAASGFTFENAWMHWVRQAPGKGLEWVAQIKDKGNAYAAYYAPSVKGRFTISRDDSKNSIYLQMNSLKTEDTAVYYCHYVHYASASTVLPAFGVDAWGQGTTVTVSS VL: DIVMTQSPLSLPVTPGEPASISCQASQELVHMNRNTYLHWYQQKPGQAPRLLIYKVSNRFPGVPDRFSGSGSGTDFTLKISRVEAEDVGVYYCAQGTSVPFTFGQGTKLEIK , please?
Completion: 0.6

Prompt: Recorded fold change of affinity for H183/L072 VH H96M (antibody, name in Kabat numbering, V domains shown) VH: QVQLVESGGGLVQPGRSLRLSCAASGFTFSNAWMHWVRQAPGKGLEWVAQIKDKGNAYAAYYAPSVKGRFTISRDDSKNSIYLQMNSLKTEDTAVYYCHYVMYASASTVLPAFGVDAWGQGTTVTVSS VL: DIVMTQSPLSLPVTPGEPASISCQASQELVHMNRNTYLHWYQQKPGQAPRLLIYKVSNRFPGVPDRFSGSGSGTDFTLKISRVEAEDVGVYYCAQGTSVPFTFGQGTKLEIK , please?
Completion: 0.1

Prompt: Recorded fold change of affinity for H183/L072 VH H35I (antibody, name in Kabat numbering, V domains shown) VH: QVQLVESGGGLVQPGRSLRLSCAASGFTFSNAWMIWVRQAPGKGLEWVAQIKDKGNAYAAYYAPSVKGRFTISRDDSKNSIYLQMNSLKTEDTAVYYCHYVHYASASTVLPAFGVDAWGQGTTVTVSS VL: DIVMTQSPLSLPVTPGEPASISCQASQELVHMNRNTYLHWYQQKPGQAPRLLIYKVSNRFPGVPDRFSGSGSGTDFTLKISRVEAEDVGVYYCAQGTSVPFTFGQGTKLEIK , please?
Completion: 0

Prompt: Recorded fold change of affinity for H183/L072 VH K52bR (antibody, name in Kabat numbering, V domains shown) VH: QVQLVESGGGLVQPGRSLRLSCAASGFTFSNAWMHWVRQAPGKGLEWVAQIKDRGNAYAAYYAPSVKGRFTISRDDSKNSIYLQMNSLKTEDTAVYYCHYVHYASASTVLPAFGVDAWGQGTTVTVSS VL: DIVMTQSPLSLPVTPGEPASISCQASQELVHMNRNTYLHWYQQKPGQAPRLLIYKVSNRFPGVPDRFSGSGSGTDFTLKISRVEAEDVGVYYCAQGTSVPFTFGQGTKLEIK , please?
Completion: 1.2

Each recorded value in this set is attributed to patent US20210388087A1.
